Target: human D2 receptor (short isoform) (Homo sapiens)
Construct: 3H-spiperone displacement
Sequence (P14416 with tags, fused parts or gaps DEL242-270): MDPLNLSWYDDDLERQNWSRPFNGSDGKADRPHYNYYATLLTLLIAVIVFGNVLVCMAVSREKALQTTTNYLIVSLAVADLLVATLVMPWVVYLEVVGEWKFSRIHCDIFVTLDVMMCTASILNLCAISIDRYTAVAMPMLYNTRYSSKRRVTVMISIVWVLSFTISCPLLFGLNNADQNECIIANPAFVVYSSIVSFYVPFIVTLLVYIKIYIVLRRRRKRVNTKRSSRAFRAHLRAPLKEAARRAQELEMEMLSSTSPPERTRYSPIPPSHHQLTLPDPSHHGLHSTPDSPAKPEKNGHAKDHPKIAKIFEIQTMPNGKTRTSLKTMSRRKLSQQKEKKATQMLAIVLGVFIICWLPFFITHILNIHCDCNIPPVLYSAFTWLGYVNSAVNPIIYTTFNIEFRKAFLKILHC
Assay: D2 receptor binding assay (displacement of 3H-spiperone), reported as D2/D4 selectivity
Details: ratio D2/D4; 3H-spiperone 0.25 nM; D2 short isoform vs D4.2
METRIC_NAME: SELECTIVITY FOR D4, D2/D4

Example molecules with recorded SELECTIVITY FOR D4, D2/D4:
LINE_NOTATION	SELECTIVITY FOR D4, D2/D4
CN1CCN(C2=Cc3cc(C#N)ccc3Sc3ccccc32)CC1	21.4
CN1CCN(C2=Nc3ccccc3Nc3cccc(F)c32)CC1	12.6
CN1CCN(C2=Nc3ccccc3Oc3c(C#N)cccc32)CC1	64.4
CN1CCN(C2=Nc3cc(Cl)c(Cl)cc3Nc3c(Cl)cccc32)CC1	18.8
CN1CCN(C2=Nc3ccccc3Nc3c(Cl)cccc32)CC1	187.5
Cc1cc2c(cc1C)Nc1ccccc1C(N1CCN(C)CC1)=N2	10.6

I: CN1CCN(C2=Nc3ccccc3Oc3c2cccc3[N+](=O)[O-])CC1
II: CN1CCN(C2=Nc3cc(Cl)c(Cl)cc3Nc3ccc(Cl)cc32)CC1
Exercise: For I and II , which recorded SELECTIVITY FOR D4, D2/D4 is lower? Write the label of whichever entry you select.
Solution: II
(II: 10.7, I: 21.4)
